- protocol notes: viability profiling in RPMI8226 myeloma cells – cell-based, resazurin fluorescence, basal, 24 h, PK04 Diversity Set, profiling panel (AID 1180);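 further: RPMI8826 multiple myeloma cell line at 5000 cells per well; test concentration not given here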
- protocol conditions: higher = more signal
What z-score was measured for each of the following?
One number for each entry.

Answered examples (5):
COC(=O)C(CC#Cc1ccc2c(c1)[C@]1(C(=O)N2)[C@H](c2ccc(OCCO)cc2)N2[C@H](c3ccccc3)[C@H](c3ccccc3)OC(=O)[C@H]2[C@@H]1C(=O)N1CCCCCCC1)C(=O)OC : -1.02
C=C(COC)C(=O)CC[C@H](OC(=O)c1cccnc1)c1ccc(OCCO)cc1 : -0.776
COCCCNC(=O)[C@@]1(CCS(=O)(=O)c2ccccc2)COC(c2ccc(OCCCO)cc2)=N1 : -0.508
COC(=O)[C@H](Cc1ccc(O)cc1)N[C@@H](/C=C/C1CC1)[C@H](O)Cc1ccccc1 : 0.177
COCCOC(=O)N1C(=O)[C@@]2(c3cc(C#CCCO)ccc31)[C@H](c1ccccc1OCCO)N1[C@H](c3ccccc3)[C@H](c3ccccc3)OC(=O)[C@H]1[C@@H]2C(N)=O : -1.45

Would you mind giving z-score for every molecule in the list below?
1. COC(=O)[C@]1(Cc2ccccc2)N=C(c2ccc(OCCCO)cc2)O[C@@H]1c1ccccc1CN=[N+]=[N-]
2. O=C(NCc1ccccc1)[C@@H]1c2ccccc2C(=O)N(Cc2ccc(OC(F)(F)F)cc2)[C@H]1c1ccc(CO)cc1

Output:
[-7.14, 1.5]

====

- protocol notes: growth modulation of vineyard yeast isolate – strain RM11-1a, OD600, basal, 24 h, primary screen (AID 1177);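 further: cultures grown under basal conditions with no added stressor; test concentration not given here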
- protocol conditions: S. cerevisiae RM11-1a growth, OD600, 24 h; higher = more signal, called active from +8 up or from −8 down
recorded metric: z-score
Give bare numbers.

Solved entries:
CN1C(=O)[C@@H]2[C@@H](CC(COc3ccccc3)=C3[C@@H](CCc4ccccc4)OB(O)C[C@@H]32)C1=O : -0.0646
C=C(CCCC)/C(=C/C[C@H](OC(C)=O)c1cccc(OCCO)c1)c1cnc2ccccc2c1 : 1.75
[N-]=[N+]=Nc1ccccc1C[C@@]1(C(=O)NCC(O)CO)N=C(c2ccc(OCCCO)cc2)O[C@@H]1c1ccccc1 (stereo partly specified) : 0.302

Please report z-score for every entry that follows.
1. Cc1ccc(N2C(=O)c3ccccc3[C@](C)(C(=O)NCCCN(C)C)[C@@H]2c2ccc(CO)cc2)nc1
2. O=C(O)[C@H](Cc1ccccc1)n1cc(C2(O)CCCCC2)nn1
3. COC(=O)[C@]1(CCC(=O)OC(C)(C)C)N=C(c2ccc(OCCCO)cc2)O[C@@H]1c1ccccc1N=[N+]=[N-]
4. CC(C)NC(=O)[C@@H]1c2ccccc2C(=O)N(Cc2ccccc2C(F)(F)F)[C@H]1c1ccc(CO)cc1
5. O=C1C=C(c2ccccc2)C(=O)C2=C1CC([C@H]1Oc3ccccc3S(=O)(=O)N3CCC[C@@H]13)=CC2
6. O=C(NCc1ccccc1)[C@@H]1c2ccccc2C(=O)N(Cc2cc(C(F)(F)F)cc(C(F)(F)F)c2)[C@H]1c1ccc(CO)cc1
7. CC(C)N1C(=O)c2ccccc2[C@](C)(C(=O)NCC(F)(F)F)[C@@H]1c1ccc(CO)cc1
8. C=CCNC(=O)[C@H]1[C@@H]2C(=O)O[C@@H](c3ccccc3)[C@@H](c3ccccc3)N2[C@@H](c2ccc(OCCO)cc2)[C@]12C(=O)Nc1ccccc12

Output:
-0.764
-0.563
2.29
-0.227
-0.926
1.06
-0.613
1.69

For every item below, please supply its z-score.
1. C=C(C)[C@@H]1CC=C(C(O)C2C=CC3C(=O)N(c4ccccc4)C(=O)C3N2Nc2ccc([N+](=O)[O-])cc2)CC1 (stereo partly specified)
2. CCCc1cc2c(n1CCc1ccc(Cl)cc1)C(C)C1CN(C(=O)c3ccccc3)C(C)(C(=O)OC)C21 (stereo unspecified)

Output:
[0.526, 1.09]

Required: z-score, one value per compound below.
1. C=C(CCCC)/C(=C/C[C@@H](OC(C)=O)c1ccc(CO)o1)c1cnc2ccccc2c1
2. CC(C)N1C(=O)C[C@@](C(=O)NCCN2CCOCC2)(c2ccc([N+](=O)[O-])cc2)[C@H]1c1ccc(CO)cc1
3. C=CC[C@@]1(C(=O)OC)N=C(c2ccc(OCCCO)cc2)O[C@@H]1c1ccccc1N=[N+]=[N-]

Output:
1: 0.324; 2: -0.291; 3: 1.72

====

- protocol notes: small molecules captured by biotinylated probe aFST – biochemical, small-molecule microarray, fluorescence 635/667, stem cell growth factor project, primary screen (AID 1086);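 further: score merges 667 nm fluorescence with signal-to-noise of each printed compound spot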
- protocol conditions: higher = more signal
Would you please tag the item met when its composite z-score is 0.2 or above, and not met when it is below?

Some solved cases for reference:
C=CC[C@]1(C(=O)NCC(O)CO)COC(c2ccc(OCCCO)cc2)=N1 (some centres undefined) : not met
COC(=O)C(CC#Cc1ccc2c(c1)[C@]1(C(=O)N2)[C@H](c2ccccc2OCCO)N2[C@H](c3ccccc3)[C@H](c3ccccc3)OC(=O)[C@H]2[C@@H]1C(=O)N1CCc2cc(OC)c(OC)cc2C1)C(=O)OC : met
O=C1C[C@@](C(=O)O)(c2ccc([N+](=O)[O-])cc2)[C@@H](c2ccc(CO)cc2)N1C1CCCCC1 : met

Consider the record given below.
Task: Test whether the compound COC(=O)[C@@]1(Cc2ccccc2)[C@H]2c3cc(C(=O)N(C)C)n(CCO)c3C[C@H]2CN1C(=O)c1ccccc1 records composite z-score of 0.2 or higher.
Output: met

====

- protocol notes: changes in parasitized red cell lysis, either direction – P. falciparum Indochina, OD700, 3 h, PSAC antagonist project, primary screen (AID 1156)
- protocol conditions: P. falciparum-infected erythrocytes, osmotic lysis, higher = more signal, called active from +8 up or from −8 down
Classification field: Condition met = z-score at or over 1; Condition not met = z-score under 1.

COC(=O)[C@@]1(Cc2ccccc2)[C@H]2c3cc(C(=O)N(C)C)n(CCO)c3C[C@H]2CN1C(=O)c1ccccc1 : Condition not met
COC(=O)C(CC#Cc1ccc2c(c1)[C@]1(C(=O)N2)[C@H](c2ccccc2OCCO)N2[C@H](c3ccccc3)[C@H](c3ccccc3)OC(=O)[C@H]2[C@@H]1C(=O)N1CCc2cc(OC)c(OC)cc2C1)C(=O)OC : Condition met
C=CCC(OC(C)=O)[C@@H]1[C@@H](N(Cc2cccc3ccccc23)C(=O)c2ccc(-c3ccccc3)cc2)c2cc(OCCCO)ccc2N1C(=O)Cc1ccc2ccccc2c1 (some centres not stated) : Condition not met
COc1ccc(NN2C(C(O)c3ccc(I)cc3)C=CC3C(=O)N(C4CCCCC4)C(=O)C32)cc1 (configuration not stated) : Condition not met
C=CC[C@@]1(C(=O)N(C)C)N=C(c2ccc(OCCCO)cc2)O[C@@H]1c1ccccc1CN=[N+]=[N-] : Condition met

Task: # check: z-score of CC(C)C(CO)N1C(=O)[C@@H]2C3C(=O)OCCC/C=C\[C@H]3OC23C=CCN(Cc2ccccc2)C(=O)[C@@H]13 (some centres not stated) is greater than or equal to 1
Output: Condition met

Task: Exam item: decide whether the reported z-score for CCCCCCc1nc(-c2ccc(-c3ccc(Cl)c(Cl)c3)o2)cc2c1[Si](C(C)C)(C(C)C)OC2 is at least 1.
Output: Condition not met

====

- protocol notes: budding yeast growth changes without added modifier – OD600, strain BY4716, 24 h, basal condition, primary screen (AID 1173)
- protocol conditions: S. cerevisiae BY4716 growth, OD600, 24 h; higher = more signal, called active from +8 up or from −8 down
recorded metric: z-score
Answers are plain numbers.

Solved cases below.
C=C(COC)/C(=C/C[C@@H](OC(C)=O)c1ccccc1OCCO)c1cnc2ccccc2c1 : -2.19
CC=CC(O)C1C=CC2C(=O)NC(=O)C2N1Nc1ccc(Cl)cc1Cl (configuration not stated) : -11.4
O=C1c2ccccc2[C@@]2(Cc3ccccc3N(Cc3ccccc3)C2=O)[C@H](c2ccc(CO)cc2)N1Cc1ccccc1Cl : 0.0388
CC(C)NC(=O)[C@@H]1c2ccccc2C(=O)N(Cc2ccc(OC(F)(F)F)cc2)[C@H]1c1ccc(CO)cc1 : 0.924
CO[C@H]1O[C@H](CO)[C@@H](OC(=O)Nc2ccc3c(c2)OCO3)[C@H](OC(=O)Nc2ccccc2-c2ccccc2)[C@H]1OC(=O)Nc1ccccc1-c1ccccc1 : 2.05
CCOc1cc(C(O)C2C=CC3C(=O)N(c4ccccc4)C(=O)C3N2Nc2ccccc2F)ccc1O (configuration not stated) : -3.57

For reference, reported z-score for C=CCN1C(=O)[C@@]2(O[C@@H](CCn3cc([C@H](O)c4ccccc4)nn3)[C@H]([Si](C)(C)c3ccc(OC)cc3)[C@H]2C)c2cc(N3C(=O)c4cccc5cccc3c45)ccc21 stands at 0.318

====

- target or test system: Torsin-1A (Homo sapiens) (UniProt O14656)
- Sequence (O14656 whole entry, looked up): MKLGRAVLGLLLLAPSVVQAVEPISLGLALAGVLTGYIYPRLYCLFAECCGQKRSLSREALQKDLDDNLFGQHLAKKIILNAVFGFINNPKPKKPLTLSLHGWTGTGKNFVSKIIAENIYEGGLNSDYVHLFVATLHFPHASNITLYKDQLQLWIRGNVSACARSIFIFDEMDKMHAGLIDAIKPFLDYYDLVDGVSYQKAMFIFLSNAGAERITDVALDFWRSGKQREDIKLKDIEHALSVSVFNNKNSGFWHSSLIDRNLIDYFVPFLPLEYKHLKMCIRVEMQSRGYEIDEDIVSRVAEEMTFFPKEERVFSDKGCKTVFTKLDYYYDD
- protocol notes: TOR1A wild-type binding on microarray – cell lysate, small-molecule microarray, lysate, 635/667 nm, primary screen (AID 1149)
- protocol conditions: COS7 hTOR1A-WT lysate, 635 nm fluorescence, higher = more signal
Hi there, I'd appreciate the recorded composite z-score for every entry that follows.
Numbers only.

CC(C)C[C@@H]1NC(=O)[C@@]23C(=O)N[C@@H](Cc4ccccc4)C2[C@H](C)[C@@]2(C)O[C@H]2C3/C=C/C/C=C\CNC(=O)CNC1=O (some centres not stated) : -0.507
C=C(CCCC)C(=O)CC[C@@H](OC(=O)c1ccccc1-c1ccccc1C(=O)O)c1ccccc1OCCO : 1.21
COCCOC(=O)N1C(=O)[C@@]2(c3cc(C#CC4(O)CCCCCC4)ccc31)[C@H](c1ccc(O)cc1)N1[C@H](c3ccccc3)[C@H](c3ccccc3)OC(=O)[C@H]1[C@@H]2C(=O)N1CCCCCCC1 : 0.123
CCCCC(=C=CC[C@H](O)c1ccc(CO)o1)CCO : 1.39
CC1=C([C@H](O)CCc2ccccc2)[C@H](CO)n2c(=O)n(-c3ccccc3)c(=O)n2C1 : 0.217

State recorded composite z-score for all listed molecules.
1. NCCCCCCNC(=O)[C@@H]1C[C@@H]2C(=O)N3CCC[C@H]3C(=O)N2[C@@H]1c1cccc(OCCO)c1
2. C=CCC(OC(C)=O)[C@@H]1[C@@H](N(Cc2cccc3ccccc23)C(=O)Cc2ccc(OC)cc2)c2cc(OCCCO)ccc2N1C(=O)Cc1ccc2ccccc2c1 (some centres not stated)

Output:
[2.21, -0.254]
